tested on: sicklepod (Cassia obtusifolia, CASOB); assay: Post-emerge greenhouse herbicide test, phytotoxicity rating; format: in vivo; conditions: Senna obtusifolia, post-emergence, 336 h, rate 500 g ai/ha, 14 days after application, scale 0-100
Listed here: items and their measured pest or weed control at 500 g/ha.

Form field: pest or weed control at 500 g/ha recorded for "N#Cc1ccc(Oc2cc(-n3c(=O)cc(C(F)(F)F)n(N)c3=O)c(F)cc2Cl)nc1" with sicklepod (Cassia obtusifolia, CASOB) (enter value)
50%

More entries:
Item "Nn1c(C(F)(F)F)cc(=O)n(-c2cc(Oc3ncccc3[N+](=O)[O-])c(Cl)cc2F)c1=O" with sicklepod (Cassia obtusifolia, CASOB) - pest or weed control at 500 g/ha?
30%

Lookup: pest or weed control at 500 g/ha / sicklepod (Cassia obtusifolia, CASOB) / "Nn1c(C(F)(F)F)cc(=O)n(-c2cc(Oc3ccc(Cl)cn3)c(Cl)cc2F)c1=O"
95%

Lab note: need pest or weed control at 500 g/ha for "Nn1c(C(F)(F)F)cc(=O)n(-c2cc(Oc3nccc(Cl)n3)c(Cl)cc2F)c1=O" on sicklepod (Cassia obtusifolia, CASOB), anyone have it?
0%

For sicklepod (Cassia obtusifolia, CASOB), provide pest or weed control at 500 g/ha of "Nn1c(C(F)(F)F)cc(=O)n(-c2cc(Oc3ccccc3C(F)(F)F)c(Cl)cc2F)c1=O" please.
80%

Request - read-out pest or weed control at 500 g/ha | tested on sicklepod (Cassia obtusifolia, CASOB) | compound "Nn1c(C(F)(F)F)cc(=O)n(-c2cc(Oc3cc([N+](=O)[O-])cc(C(F)(F)F)c3)c(Cl)cc2F)c1=O"
30%

Provide the documented pest or weed control at 500 g/ha with sicklepod (Cassia obtusifolia, CASOB) as the system for "Nn1c(C(F)(F)F)cc(=O)n(-c2cc(Oc3ccccc3[N+](=O)[O-])c(Cl)cc2F)c1=O"
100%

Give sicklepod (Cassia obtusifolia, CASOB) pest or weed control at 500 g/ha for "Nn1c(C(F)(F)F)cc(=O)n(-c2cc(Oc3ncccn3)c(Cl)cc2F)c1=O"
100%

---

test system: redroot pigweed (Amaranthus retroflexus, AMARE); assay: Pre-emerge greenhouse herbicide test, phytotoxicity rating; assay type: in vivo; details: 500 g ai/ha, 14 days after application, rating scale 0-100
Measurement Name: phytotoxicity rating AMARE

Recorded results for 6 compounds are shown here.
What value of phytotoxicity rating AMARE has been recorded for this entry: O=c1n(CCCF)nnn1-c1cc(Oc2ncccc2C(F)(F)F)c(Cl)cc1Cl [Compound 6-7]
100

Query: phytotoxicity rating AMARE; subject: O=c1n(-c2cc(Oc3ccc([N+](=O)[O-])cc3)c(Cl)cc2F)c(=S)n2n1CCCC2 [Compound 8-8]
100

GET /values?readout=phytotoxicity rating AMARE&item= Nc1ccc(Oc2cc(-n3c(=O)n4n(c3=S)CCCC4)c(F)cc2Cl)cc1 [Compound 8-9]
95

Need phytotoxicity rating AMARE, item CCOC(=O)C(C)Oc1ccc(Oc2cc(-n3c(=O)n4n(c3=S)CCCC4)c(F)cc2Cl)cc1 (centres unmarked) [Compound 8-11]
100

// query phytotoxicity rating AMARE value for entry O=c1n(CCCF)nnn1-c1cc(Oc2ncccc2[N+](=O)[O-])c(Cl)cc1F [Compound 6-2]
99

Could you tell me which phytotoxicity rating AMARE is on file for Cn1nc(-c2cc(Oc3cccc(F)n3)c(Cl)cc2F)c(Cl)c1C(F)(F)F [Compound 1-5] ?
100

---
For the compound shown here, O=c1n(CCCF)nnn1-c1cc(Oc2ccc(C(F)(F)F)cn2)c(Cl)cc1Cl [Compound 6-9] , give the reported phytotoxicity rating AMARE.
0

Param item = Cc1nn(-c2cc(Oc3ncccn3)c(Cl)cc2F)c(=O)n1C(F)F [Compound 3-1] ; retrieve measured phytotoxicity rating AMARE.
100
